- assayExplanation: log P determination by HPLC on reversed-phase columns (C 18), analogous to OECD Guideline 117
- Type: physicochemical
- measurementParameters: neutral range, pH 7.8, 0.001 molar aqueous ammonium hydrogencarbonate and acetonitrile
Examples of compounds with documented logP(neutral) follow.
readoutType: logP(neutral)

compound	reading
Cc1cc(F)c(-n2cnc3cnccc3c2=O)cc1[S+]([O-])CC(F)(F)F (stereo not shown)	1.63
Cc1cc(C)c([S+]([O-])CC(F)(F)F)cc1-n1c(C)nc2ncccc2c1=O (stereo not shown)	1.67
O=c1c2cccnc2ncn1-c1cc([S+]([O-])CC(F)(F)F)c(Cl)cc1Cl (stereo not shown)	1.84
Cc1cc(F)c(-n2cnc3cccnc3c2=O)cc1[S+]([O-])CC(F)(F)F (stereo not shown)	1.46
